FYI, the data here is from PubChem BioAssay.

# assay_info: inhibitors of hydroxyurea-induced Chk1 phosphorylation, primary screen, imaging, HeLa, phospho-Chk1 nuclear intensity (AID 1187); further: test concentration not given here
# assay_context: hydroxyurea-induced phospho-Chk1 immunofluorescence imaging, higher = more signal
endpoint: z-score
No unit in the answer, only the number.

Fill in: z-score of COCCCNC(=O)[C@@]1(Sc2ccc(C)cc2)CC(=O)N(Cc2ccccc2Cl)[C@@H]1c1ccc(CO)cc1I is ___
0.456

I have this compound here, C=CCNC(=O)[C@H]1[C@@H]2C(=O)O[C@@H](c3ccccc3)[C@@H](c3ccccc3)N2[C@@H](c2ccc(O)cc2)[C@]12C(=O)N(C(=O)OCCOC)c1ccc(C#CCC(C(=O)OC)C(=O)OC)cc12 , and I need its recorded z-score.
-0.0093

So what's the measured z-score for this one? CC(C)OC(=O)CC(=O)CC(O)c1ccc([N+](=O)[O-])cc1 (stereo not drawn)
-0.438

What measured z-score goes with CCOC(=O)C=Cc1cc(F)ccc1O ?
-1.13

Please give the measured z-score for this compound: CC(C)[C@H]1NC(=O)[C@@]23C(=O)N[C@@H](Cc4ccccc4)C2[C@H](C)[C@@]2(C)O[C@H]2C3/C=C/C/C=C\CNC(=O)[C@H](Cc2ccccc2)NC1=O (stereo partly drawn)
0.5

Fill in: z-score of C=CCNC(=O)[C@@H]1[C@H]2C(=O)O[C@H](c3ccccc3)[C@H](c3ccccc3)N2[C@H](c2ccc(O)cc2)[C@@]12C(=O)N(C(=O)OCCOC)c1ccc(C#CCCO)cc12 is ___
-0.365

Query (compound): CC(C)=CCCC(C)=CC(O)C1C=CC2C(=O)N(c3ccccc3)C(=O)C2N1Nc1ccccc1F (stereo not drawn) ; field requested: z-score
0.0908

What value of z-score has been reported for the following compound? COC(=O)C1=CC(CCCO)=CC(c2ccc(CN3CCCC3)cc2)N(Cc2cc3c(cc2Br)OCO3)C=C1C(=O)OC (stereo not drawn)
0.656

---

I'd appreciate it if you could supply composite z-score values for the items below.
# experimental_system: Neurogenic locus notch homolog protein 3 (Homo sapiens) (UniProt Q9UM47)
# Sequence (Q9UM47 whole entry, looked up): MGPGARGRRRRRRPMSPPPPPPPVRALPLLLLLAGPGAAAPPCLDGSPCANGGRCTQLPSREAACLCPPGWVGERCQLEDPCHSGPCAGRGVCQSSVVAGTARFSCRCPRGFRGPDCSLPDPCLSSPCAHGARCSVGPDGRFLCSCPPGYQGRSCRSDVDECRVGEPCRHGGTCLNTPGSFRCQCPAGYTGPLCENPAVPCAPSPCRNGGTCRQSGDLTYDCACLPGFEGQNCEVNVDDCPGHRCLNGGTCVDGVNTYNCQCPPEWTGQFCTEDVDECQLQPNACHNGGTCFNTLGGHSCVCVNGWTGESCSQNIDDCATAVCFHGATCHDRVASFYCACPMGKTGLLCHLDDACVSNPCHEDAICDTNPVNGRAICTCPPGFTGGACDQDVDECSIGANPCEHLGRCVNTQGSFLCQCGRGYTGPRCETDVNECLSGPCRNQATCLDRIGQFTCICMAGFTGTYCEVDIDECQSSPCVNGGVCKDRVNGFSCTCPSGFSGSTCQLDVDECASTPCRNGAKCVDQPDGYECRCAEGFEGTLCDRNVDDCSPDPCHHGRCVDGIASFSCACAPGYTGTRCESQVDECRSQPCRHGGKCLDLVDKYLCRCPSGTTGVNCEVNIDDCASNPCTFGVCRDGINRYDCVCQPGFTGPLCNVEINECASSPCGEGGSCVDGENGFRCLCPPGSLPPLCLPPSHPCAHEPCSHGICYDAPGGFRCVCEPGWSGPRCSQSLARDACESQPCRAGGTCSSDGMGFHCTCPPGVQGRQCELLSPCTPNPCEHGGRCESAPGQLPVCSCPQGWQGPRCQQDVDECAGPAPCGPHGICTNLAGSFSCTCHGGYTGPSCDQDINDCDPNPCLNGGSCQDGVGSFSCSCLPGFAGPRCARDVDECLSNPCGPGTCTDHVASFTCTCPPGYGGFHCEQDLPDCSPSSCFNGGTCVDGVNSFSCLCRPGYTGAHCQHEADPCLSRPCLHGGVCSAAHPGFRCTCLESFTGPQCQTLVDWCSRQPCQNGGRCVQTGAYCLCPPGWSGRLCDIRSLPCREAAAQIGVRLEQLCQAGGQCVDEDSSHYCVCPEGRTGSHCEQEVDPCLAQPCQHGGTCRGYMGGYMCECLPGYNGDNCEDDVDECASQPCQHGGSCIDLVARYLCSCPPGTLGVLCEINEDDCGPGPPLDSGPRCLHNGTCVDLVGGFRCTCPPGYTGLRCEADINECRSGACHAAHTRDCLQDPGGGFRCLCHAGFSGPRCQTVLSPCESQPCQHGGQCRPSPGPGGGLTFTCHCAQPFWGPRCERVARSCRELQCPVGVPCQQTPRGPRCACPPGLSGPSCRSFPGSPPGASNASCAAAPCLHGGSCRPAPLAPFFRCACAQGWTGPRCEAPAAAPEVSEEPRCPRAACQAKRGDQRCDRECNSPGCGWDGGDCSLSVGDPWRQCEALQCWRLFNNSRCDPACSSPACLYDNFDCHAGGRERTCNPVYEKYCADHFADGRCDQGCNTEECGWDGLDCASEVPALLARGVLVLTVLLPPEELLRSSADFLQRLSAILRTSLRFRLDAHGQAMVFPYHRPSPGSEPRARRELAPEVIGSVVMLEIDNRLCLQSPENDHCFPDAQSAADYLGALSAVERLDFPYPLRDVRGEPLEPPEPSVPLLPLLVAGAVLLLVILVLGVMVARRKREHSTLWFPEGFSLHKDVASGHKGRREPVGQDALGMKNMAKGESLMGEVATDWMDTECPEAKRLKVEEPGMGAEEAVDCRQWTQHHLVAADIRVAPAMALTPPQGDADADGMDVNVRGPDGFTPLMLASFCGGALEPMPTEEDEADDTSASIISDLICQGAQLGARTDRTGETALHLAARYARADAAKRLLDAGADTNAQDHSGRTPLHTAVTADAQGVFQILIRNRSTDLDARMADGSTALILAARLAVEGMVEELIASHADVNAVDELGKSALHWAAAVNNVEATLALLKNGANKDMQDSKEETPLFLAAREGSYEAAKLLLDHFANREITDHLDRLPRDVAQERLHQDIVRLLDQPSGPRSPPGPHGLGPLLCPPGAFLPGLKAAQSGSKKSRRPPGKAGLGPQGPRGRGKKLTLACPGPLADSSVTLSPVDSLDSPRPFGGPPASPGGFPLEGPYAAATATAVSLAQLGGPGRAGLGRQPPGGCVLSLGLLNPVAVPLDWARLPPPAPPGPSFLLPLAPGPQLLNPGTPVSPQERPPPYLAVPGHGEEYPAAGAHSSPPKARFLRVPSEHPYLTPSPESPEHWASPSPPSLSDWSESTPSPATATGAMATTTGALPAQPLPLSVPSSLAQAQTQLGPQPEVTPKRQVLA
# assay_info: NOTCH3 binders on small-molecule microarray, primary screen, biochemical, 635/667 nm fluorescence (AID 1096)
# assay_context: NOTCH3 binding, 635 nm fluorescence, higher = more signal
// no unit, no text: just the number

Return reported composite z-score; argument: COC(=O)[C@@]1(Cc2ccc(OC)cc2)[C@H]2c3cc(C(=O)N4CCCC4)n(Cc4ccc(OC(F)(F)F)cc4)c3C[C@H]2CN1C(=O)c1ccccc1
0.75

Record request: composite z-score value, item CCCCCCCCCCC(O)C1C=CC2C(=O)N(c3ccccc3)C(=O)C2N1Nc1ccccc1F (centres undefined)
-0.277

Suppose we examine the compound CC(C)OC(=O)CC(=O)CC(O)c1ccc([N+](=O)[O-])cc1 (centres undefined) ; what composite z-score value has been reported?
0.422

I would be grateful if you could share the reported composite z-score for CC(C)CNC(=O)[C@@H]1c2ccccc2C(=O)N(C2CCCCC2)[C@H]1c1ccc(CO)cc1 .
-0.358

// query composite z-score value for entry C=CCC(OC(C)=O)[C@@H]1[C@@H](N(Cc2cccc3ccccc23)C(=O)Cc2ccc(F)cc2)c2cc(OCCCO)ccc2N1C(=O)c1ccc(-c2ccccc2)cc1 (some centres undefined)
-1.37

Name the reported composite z-score value associated with the compound CCOC(=O)C1=C[C@@H](C(C)(C)C)N(S(=O)(=O)c2ccc(C)cc2)[C@H]1c1ccccc1
1.07

I'd like to know its composite z-score. The compound in question is CCCCNC(=O)c1ccc(C#C[Si](C(C)C)(C(C)C)C(C)C)c(OC(C)=O)c1
1.05

GET /values?readout=composite z-score&item= [N-]=[N+]=NCc1ccccc1[C@H]1OC(c2ccc(OCCCO)cc2)=N[C@@]1(Cc1ccccc1)C(=O)NCCN1CCOCC1
1.09

Given the entry CN(C)CCCCCCNC(=O)[C@@H]1C[C@@H]2C(=O)N[C@@H](CCCCN)C(=O)N2[C@@H]1c1ccc(O)cc1 , report its measured composite z-score.
1.02

---

# assay_info: small-molecule binders of probe aLefty1, primary screen, biochemical, small-molecule microarray, 635/667 nm fluorescence (AID 1153);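 further: score merges spot fluorescence with signal-to-noise ratio from the scanned slide images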
# assay_context: higher = more signal
Please provide measured composite z-score for the entries that follow.
Answer using only a numeral; do not append any unit.

Quick one: composite z-score of C=C(C)C1CCC(C(O)C2C=CC3C(=O)N(C)C(=O)C3N2Nc2cc(OC)c(OC)c(OC)c2)CC1 (centres undefined) ?
0.361

Given the entry C=CCC(OC(C)=O)[C@@H]1[C@@H](N(Cc2cccc3ccccc23)C(=O)c2cccc3ccccc23)c2cc(OCCCO)ccc2N1C(=O)c1ccc2ccccc2c1 (some centres undefined) , report its measured composite z-score.
-0.333

Field request: composite z-score | item: CCC(CC)C(O)C1C=CC2C(=O)N(c3ccccc3)C(=O)C2N1Nc1ccc([N+](=O)[O-])cc1 (centres undefined)
0.342

Which composite z-score value is on record for COCCCNC(=O)[C@@H]1c2ccccc2C(=O)N(C2Cc3ccccc3C2)[C@H]1c1ccc(CO)cc1 ?
-0.0603

---

# assay_info: CREB reporter modulators without forskolin, primary screen, cell-based, PC12, CRE-LacZ reporter, unstimulated (AID 1145)
# assay_context: no forskolin, luminescence, 4.5 h, higher = more signal, called active from +8 up or from −8 down
For each of the molecules below, state its z-score.
API note: the answer field is a bare number with no unit suffix.

Need z-score of CCOC(=O)C1=CCC(c2ccco2)N(S(=O)(=O)c2ccc(C)cc2)C1 (stereo unspecified) , thanks.
-0.0228

Bench note: what z-score did CC(=O)NCCCC[C@@H]1NC(=O)[C@H]2C[C@@H](C(=O)NCCCCCNC(=O)CS)[C@@H](c3cccc(OCCO)c3)N2C1=O show?
-0.13

Fill in the blank: the reported z-score of CC(C)C(=C=CC[C@H](O)c1cccc(OCCO)c1)CCO is ____.
6.6

I am curious: what z-score value has been reported for C=C(COC)C(=O)CC[C@H](OC(=O)c1cccnc1)c1ccc(CO)o1 ?
0.522

Data request, read-out z-score, for NC(=O)[C@@H]1[C@H]2C(=O)O[C@H](c3ccccc3)[C@H](c3ccccc3)N2[C@H](c2ccc(OCCO)cc2)[C@@]12C(=O)Nc1ccc(C#CCCO)cc12
-0.0515

z-score lookup needed for O=C1C2C=CC(C(O)c3ccc4c(c3)OCO4)N(Nc3ccccc3)C2C(=O)N1c1ccccc1 (stereo unspecified) , thanks.
0.44

Give the measured z-score of [N-]=[N+]=Nc1ccccc1C[C@]1(C(=O)O)N=C(c2ccc(OCCCO)cc2)O[C@H]1c1ccccc1N=[N+]=[N-] .
0.274

Which measured z-score value corresponds to O=C1c2ccccc2[C@](Cc2ccccc2I)(C(=O)NC2CC2)[C@H](c2ccc(CO)cc2)N1Cc1ccccc1C(F)(F)F ?
0.764

Item under review: C=CCNC(=O)[C@H]1[C@@H]2C(=O)O[C@@H](c3ccccc3)[C@@H](c3ccccc3)N2[C@@H](c2ccc(O)cc2)[C@]12C(=O)N(C(=O)OCCOC)c1ccc(C#CCC(C(=O)OC)C(=O)OC)cc12 . Reported z-score?
0.0653

Return reported z-score; argument: CC1(C)C(=O)C(c2ccccc2)=C2CN3C(=O)N(CCc4ccccc4)C(=O)C3(Cc3ccc(C(F)(F)F)cc3)C=C21 (stereo unspecified)
-0.379

Record request: z-score value, item CCCCC(=O)N(CCN1CCOCC1)[C@@H]1CC(C(=O)NCCO)=C[C@H](Oc2c(I)cc(CO)cc2OC)[C@H]1O
1.4

Quick one: z-score for CCOC(=O)C1=C[C@@H](C(C)(C)C)N(S(=O)(=O)c2ccc(C)cc2)[C@H]1c1ccccc1 ?
0.696

Fill blank: measured z-score of the molecule O=C(N1CCOCC1)[C@@]1(CCS(=O)(=O)c2ccccc2)N=C(c2ccc(OCCCO)cc2)O[C@H]1c1ccccc1 is ____.
0.0127

If you can, please state the reported z-score value of [N-]=[N+]=NCc1ccccc1C[C@]1(C(=O)N2CCOCC2)COC(c2ccc(OCCCO)cc2)=N1 .
1.69

Need z-score of Cc1ccc([C@H]2C(C(=O)O)=C[C@@H](C(C)(C)C)N2S(=O)(=O)c2ccc(C)cc2)cc1 , thanks.
-0.312

What does the data say about its z-score? Entry: Cc1ccc(S[C@]2(C(=O)NC(C)C)CC(=O)N(Cc3ccccc3Cl)[C@@H]2c2ccc(CO)cc2)cc1
-0.295

---

For each entry below, report its z-score value.
# assay_info: A549 cell viability effects, profiling panel, calcein-AM fluorescence, 48 h, basal (AID 1162); further: test concentration not given here
# assay_context: higher = more signal

Which measured z-score value corresponds to CCOC(=O)C[C@H]1[C@H](OC(=O)c2ccccc2-c2ccccc2)[C@@H](NC(=O)c2ccccc2)c2cc(OCCCO)ccc2N1C(=O)c1ccccc1 ?
-0.164

So what's the measured z-score for this one? COc1ccc([Si](C)(C)[C@@H]2[C@@H](CCn3cc([C@H](O)c4ccccc4)nn3)O[C@]3(C(=O)N(c4ccccc4)c4ccccc43)[C@H]2C)cc1
-0.985

Would you kindly share the measured z-score for CC(C)CCC[C@@H](C)[C@H]1CC[C@@]2(C)C3=C(CC[C@]12C)[C@@]1(C)CC[C@H](OC(=O)c2ccccc2)C(C)(C)C1CC3 (stereo partly specified) ?
0.667

Which z-score is listed for CCOC(=O)C[C@H]1[C@H](OC(=O)c2ccc(-c3ccccc3)cc2)[C@@H](NC(=O)Cc2ccc(OC)cc2)c2cc(OCCCO)ccc2N1C(=O)Cc1ccc(OC)cc1 ?
0.368

GET /values?readout=z-score&item= COC(=O)[C@@]1(Cc2ccc(OC)cc2)[C@H]2c3cc(C(=O)N4CCCC4)n(Cc4ccc(OC(F)(F)F)cc4)c3C[C@H]2CN1C(=O)c1ccccc1
-0.77

Using the record for O=C1C[C@@](C(=O)NCC(F)(F)F)(c2ccc([N+](=O)[O-])cc2)[C@@H](c2ccc(CO)cc2)N1CC12CC3CC(CC(C3)C1)C2 , report its z-score.
-1.8
